Target: Cyclin-dependent kinase 2 (Homo sapiens, UniProt P24941)
property name: IC50 (nM)
Give bare numbers, in nM.

Q: Would you kindly share the measured IC50 for O=C1Nc2ccc3ncsc3c2C1C=Nc1ccc(S(=O)(=O)NCc2ccccc2)cc1 (configuration not stated) ?
A: 5.6
